- TARGET_ENTITY: T1, human CD36 (on HEK 293 or SCC25 cells) (human, UniProt P16671 2-472)
- T1 construct: Overexpressed transiently or stably on HEK 293 cells, or stably on SCC25 cells; also called huCD36
- TEST_SUMMARY: FACS, SCC25 cells stably overexpressing human CD36
READOUT_LABEL: EC50 (nM)
Note: unit nM is implicit; provide only the numeric part.

Record request: EC50 value, item 7G04 (antibody, human IgG1, V domains shown, Chimeric: mouse variable regions on human IgG1 LALA (L234A/L235A); also called 07G04; 007G04) VH: QVQMKESGAELVRPGASVKLSCKALGYTFTDYEIQWVKQTPVHGLEWIGGIHPGSSGIVYNQKFKGKATLTADKSSSTAYMELSSLTSEDSAVYYCTRGGGYDGAWFAYWGQGSLVTVSA VL: ETTVTQSPASLSMAIGEKVTIRCITSTDIDDDMNWYQQKPGEPPKLLISEGNTLRPGVPSRFSSSGYGTDFVFTIENMLSEDVADYYCLQSDNLPFTFGSGTKLEIK
0.68

Entry 28G04 (antibody, human IgG1, V domains shown, Chimeric: mouse variable regions on human IgG1 LALA (L234A/L235A); also called 028G04) VH: EVQLQQSGPELVKPGASVKISCKTSGYTFTEYTIHWVKQSHGKSLEWIGGIIPNNGGSSHKQNFKDKATLTVDKSSSTAYMELRSLTSEDSAVYYCARAGDYAFDYWGQGTTLTVSS VL: ETTVTQSPASLSMAIGEKVTIRCITSTDIDDDMNWYQQKPGEPPKLLISEGNTLRPGVPSRFSSSGYGTDFVFTIENMLSEDVADYYCLQSGTLPFTFGSGTKLEIK please
0.95

30G04 (antibody, human IgG1, V domains shown, Chimeric: mouse variable regions on human IgG1 LALA (L234A/L235A); also called 030G04) VH: EVQLVESGGGVVQPGESLKLSCESNEYEFPSHDMSWVRKTPERRLELVAAINSDGAITYYPDTMERRFIISRDNTKKTLYLQMSSLKSEDTAMYYCARHGQTGTWFAYWGQGTLVTVSA VL: ETTVTQSPASLSMAIGEKVTIRCITSTDIDDDMNWYQQKPGEPPKLLISEGNTLRPGVPSRFSSSGYGTDFVFTIENMLSEDVADYYCLQSDNLPLTFGAGTKLELK ?
0.22

Reference source for all entries: patent US20250206836A1
